# System: CTK
# Construct: gene MATK
# Measurement parameters: concentration: 1 μM,replicates: in singlicate; n = 1;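 also: KINOMEscan kinase panel screen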
Give %Inh for every item shown.
Numbers only, in %.

| Compound | Measurement units | %Inh |
| --- | --- | --- |
| C[C@@H](Oc1cc(-n2cnc3ccc(-c4ccncc4)cc32)sc1C(N)=O)c1ccccc1Cl [GSK483724] | % | 0 |
| Cl.c1ccc(Oc2ccc(Nc3ccnc4cc(-c5ccc(CN6CCNCC6)o5)ccc34)cc2)nc1 [GW567142] | % | 10 |
| COc1cc2ncn(-c3cc(OCC4CCCCC4)c(C(N)=O)s3)c2cc1OC [GSK204559] | % | 0 |

Attention now turns to another entry.
Exam item: System CTK. Read-out %Inh. Item Cc1ccc(C(=O)Nc2ccc(Oc3ccc4nc(NC(=O)C5CC5)cn4c3)c(F)c2)c(=O)n1-c1ccccc1 . Report value.
Marked response: 0

---

Can you tell me %Inh for the items I'm about to list?
# System: SGK2
# Measurement parameters: concentration: 1 μM,replicates: in singlicate; n = 1
One number for each entry, in %.

Here is how some molecules turned out for %Inh.
| Molecule | %Inh, % |
| --- | --- |
| CCOC(=O)N1CCC(n2cnc(-c3ccc(F)cc3)c2-c2ccnc(N)n2)CC1 | 33 |
| CC(=O)Nc1ccc(-c2cc3ncnc(SCC(=O)O)c3s2)cc1 | 0 |
| Cc1ccc(C(=O)Nc2ccc(Oc3ccc4nc(NC(=O)C5CC5)cn4c3)c(F)c2)c(=O)n1-c1ccccc1 | 0 |
| CS(=O)(=O)c1cccc(CNc2nc(Nc3ccc4c(c3)[C@@H]3C[C@@H]4CNC3=O)ncc2C(F)(F)F)c1 | 0 |
| CNC(=O)c1ccccc1Nc1nc(Nc2cccc(CS(C)(=O)=O)c2)ncc1C.O=CO | 14 |
| COc1cccc(OC)c1C(=O)Nc1cccc(-c2nn3ccccc3c2-c2ccnc(Nc3cccc(F)c3)n2)c1 | 26 |

For every listed record, write down its %Inh.
1. CN1CCN(CCCNc2nccc(-c3c(-c4ccc(F)cc4)nn4cc(C(N)=O)ccc34)n2)CC1
2. C[C@@H](Oc1cc(-n2cnc3cc(-c4cnn(C)c4)ccc32)sc1C(N)=O)c1ccccc1Cl
3. COC(=O)Nc1nc2cc(Oc3ccc(NC(=O)Nc4cc(C(F)(F)F)ccc4Cl)cc3)ccc2[nH]1.Cl
4. CN(c1cccc(CNc2nc(Nc3ccc4c(c3)CC(=O)N4)ncc2C(F)(F)F)c1)S(C)(=O)=O
5. Cc1cccc(-c2nc(Nc3ccncc3)c3sccc3n2)n1
6. COc1ccc(Nc2nccc(N3CCC(NC(=O)c4cccc(C#N)c4)C3)n2)cc1 (centres unmarked)
7. COc1cc2nccc(Nc3ccc(Oc4ccccc4)cc3)c2cc1OC.Cl
8. CC(=O)Nc1nc2cnc(Nc3cc(NC(=O)c4cccc(CC(C)(C)C#N)c4)ccc3C)nc2s1

Marked response:
0
5
0
0
11
0
0
0

---

# Tested on: PIK3CA
# Measurement parameters: concentration: 1 μM,replicates: in singlicate; n = 1
Label Satisfied when %Inh < 3%; otherwise Not satisfied.

Exam item: Say whether its %Inh is strictly beneath 3%. Entry: Cn1ccc2ncnc(Oc3ccc(NC(=O)Nc4cnn(C(C)(C)C)c4)c(Cl)c3)c21
Marked response: Not satisfied

Exam item: Dear reviewer, please state whether Cc1cccc(-c2nc(Nc3ccncc3)c3sccc3n2)n1 has %Inh strictly beneath 3%.
Marked response: Not satisfied

Exam item: API: query returns whether the compound falls strictly under 3% in %Inh. Query: COc1cc2nccc(Nc3ccc(Oc4ccccc4)cc3)c2cc1OC.Cl
Marked response: Satisfied

Exam item: Bench note: check whether Cc1ccn2nc(-c3ccc(F)cc3)c(-c3ccncc3)c2c1.Cl shows %Inh below 3%
Marked response: Satisfied

Exam item: %Inh strictly < 3% for this compound? C[C@@H]1CCN(C(=O)N2CCCC2)C[C@@H]1N(C)c1ncnc2[nH]ccc12
Marked response: Satisfied

Exam item: Threshold test, %Inh < 3%: Cn1ccc2ncnc(Oc3ccc(NC(=O)Nc4cncc(C(F)(F)F)c4)c(Cl)c3)c21
Marked response: Satisfied

Exam item: Take the compound CCCC(=O)Nc1n[nH]c2ncccc12 and say whether its %Inh is less than 3%.
Marked response: Satisfied
